The measurements presented in this section are drawn from patent US10414764B2.

Assay: Solubility in water
Assay type: physicochemical
Conditions: water, product as per the present invention
measure_name: solubility

molecule="CCCS(=O)(=O)Nc1ccc(F)c(C(=O)c2c[nH]c3ncc(-c4ccc(Cl)cc4)cc23)c1F [Form-SVM]" measure_name=solubility test_value="> 1 µg/mL"
